Target: T1, CRF2R
T1 sequence (Q13324 whole entry, species assumed, looked up): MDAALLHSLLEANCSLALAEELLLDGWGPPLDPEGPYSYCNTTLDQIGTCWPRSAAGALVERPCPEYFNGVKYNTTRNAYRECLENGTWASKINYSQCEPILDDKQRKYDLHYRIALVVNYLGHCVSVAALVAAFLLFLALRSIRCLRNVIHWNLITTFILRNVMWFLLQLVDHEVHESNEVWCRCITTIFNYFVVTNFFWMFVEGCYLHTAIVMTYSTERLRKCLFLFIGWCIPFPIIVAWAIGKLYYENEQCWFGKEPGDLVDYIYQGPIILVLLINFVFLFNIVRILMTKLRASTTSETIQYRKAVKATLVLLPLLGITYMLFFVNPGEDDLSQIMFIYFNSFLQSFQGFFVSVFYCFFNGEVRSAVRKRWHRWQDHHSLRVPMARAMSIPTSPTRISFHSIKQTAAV
Assay: cell-based or functional assay
Ends that are not written are not given here.
Each record here notes measured CRF2R Emax.

The recorded CRF2R Emax for entry ZGPPISIDLPFQLLRKMIEIEKQEKEKQQATTNRLLLDRV (C-terminal amide) [SEQ ID NO 18] equals 97%

response.value for IVLSLDVPIGLLQILLEMTKADQLAQQAHSNRKLLDIA-NH2 [SEQ ID NO 155] (field: CRF2R Emax) = 94%

Next item in the queue.
Lab book: CRF2R Emax of DNPSLSIDLPLHLLRTLLELARTQSQRERAEQNAIIFASV-NH2 [SEQ ID NO 179] noted as 92.5%

Values were extracted from patent US20030148956A1.
